target: 5-HT2 receptor (A7r5 rat vascular smooth muscle cells) (Rattus norvegicus, UniProt P14842); construct: endogenous in cells; test: 5-HT2 functional assay: [Ca2+]i mobilization (FLIPR); conditions: [Ca2+]i mobilization
Sequence (P14842 whole entry): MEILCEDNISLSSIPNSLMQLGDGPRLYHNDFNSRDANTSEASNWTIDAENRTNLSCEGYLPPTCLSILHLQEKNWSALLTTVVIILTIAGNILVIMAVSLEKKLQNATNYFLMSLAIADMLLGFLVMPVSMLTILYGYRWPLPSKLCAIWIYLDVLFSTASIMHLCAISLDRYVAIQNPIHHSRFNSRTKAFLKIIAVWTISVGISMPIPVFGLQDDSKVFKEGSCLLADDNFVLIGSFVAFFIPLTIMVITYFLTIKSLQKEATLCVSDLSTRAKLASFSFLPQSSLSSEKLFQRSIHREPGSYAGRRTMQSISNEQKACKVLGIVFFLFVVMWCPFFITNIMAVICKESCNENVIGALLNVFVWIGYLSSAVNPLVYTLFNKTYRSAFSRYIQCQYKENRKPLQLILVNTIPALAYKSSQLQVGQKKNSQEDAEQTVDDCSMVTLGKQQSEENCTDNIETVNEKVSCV
Where a name gives a salt, the structure may show the parent alone.
We label by threshold. Values of EC50 strictly beneath 90 nM are T. Values of 90 nM and up are F.

[
  {
    "molecule": "CC(C)C(=O)NC[C@H]1COc2ccc3cnn(C[C@H](C)N)c3c2O1 [Example 6, hydrochloride]",
    "assigned_label": "F"
  },
  {
    "molecule": "C[C@H](N)Cn1ncc2ccc3c(c21)O[C@@H](CO)CO3 [Example 1, hydrochloride]",
    "assigned_label": "T"
  },
  {
    "molecule": "C[C@H](N)Cn1ncc2ccc3c(c21)O[C@@H](CNS(C)(=O)=O)CO3.Cl [Example 4, hydrochloride]",
    "assigned_label": "T"
  },
  {
    "molecule": "C[C@H](N)Cn1ncc2ccc3c(c21)O[C@@H](CN)CO3 [Example 8, hydrochloride]",
    "assigned_label": "F"
  },
  {
    "molecule": "COC(=O)NC[C@@H]1COc2ccc3cnn(C[C@H](C)N)c3c2O1 [Example 9, hydrochloride]",
    "assigned_label": "F"
  },
  {
    "molecule": "C[C@H](N)Cn1ncc2ccc3c(c21)OCCO3 [Example 3, hydrochloride]",
    "assigned_label": "T"
  },
  {
    "molecule": "C[C@H](N)Cn1ncc2ccc3c(c21)O[C@H](CO)CO3.Cl [Example 2, hydrochloride]",
    "assigned_label": "T"
  },
  {
    "molecule": "CCS(=O)(=O)NC[C@H]1COc2ccc3cnn(C[C@H](C)N)c3c2O1.Cl [Example 5, hydrochloride]",
    "assigned_label": "T"
  }
]
